The measured values listed here are drawn from paper PMC10053623.

Assay: in vitro
Details: dog
observable: CC50 at 72 h

Query string: Which CC50 at 72 h value belongs to CCC(CC)O[C@@H]1C=C(C(=O)O)C[C@H](N)[C@H]1NC(C)=O [Oseltamivir carboxylate] ?
Result string: > 200 µM
